Catalogue of binders with associated OD450
Biological target: T1, human MSLN-R1-his protein (human, UniProt Q13421 296-390)
T1 construct: Made in HEK293E cells, purified on nickel column; also called hMSLN-R1-his; human MSLN-R1 protein; not shown: His tag
T1 chain: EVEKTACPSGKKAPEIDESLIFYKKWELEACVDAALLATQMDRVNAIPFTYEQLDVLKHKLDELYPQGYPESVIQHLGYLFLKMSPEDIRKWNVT
Assay: ELISA, coated antigen, antibody 200 nM
Please reply with the number alone, leaving off any unit.

Request: May I ask what OD450 has been recorded for S009-F7.66.12 chimeric antibody (antibody, human IgG1, kappa, V domains shown, Human-murine chimeric antibody, human IgG1/kappa constant regions) VH: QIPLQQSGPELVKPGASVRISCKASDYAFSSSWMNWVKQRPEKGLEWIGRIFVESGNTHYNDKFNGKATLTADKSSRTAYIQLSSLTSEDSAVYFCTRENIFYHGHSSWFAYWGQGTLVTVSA VL: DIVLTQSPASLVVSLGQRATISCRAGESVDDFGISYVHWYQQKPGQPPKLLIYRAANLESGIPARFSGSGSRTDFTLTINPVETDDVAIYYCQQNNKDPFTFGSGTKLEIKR ?
Response: 0.13

Request: Dear colleague, I am looking for the recorded OD450 of the following binder: S009-F7.6.17 chimeric antibody (antibody, human IgG1, kappa, V domains shown, Human-murine chimeric antibody, human IgG1/kappa constant regions) VH: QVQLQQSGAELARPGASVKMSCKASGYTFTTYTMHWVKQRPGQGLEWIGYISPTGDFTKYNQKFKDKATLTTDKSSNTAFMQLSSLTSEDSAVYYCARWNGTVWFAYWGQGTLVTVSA VL: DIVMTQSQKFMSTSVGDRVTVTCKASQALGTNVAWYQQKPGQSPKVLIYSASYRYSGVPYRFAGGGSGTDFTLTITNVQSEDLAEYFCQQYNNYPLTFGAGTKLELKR
Response: 0.08

Request: # OD450 lookup, item S009-F7.44.20 chimeric antibody (antibody, human IgG1, kappa, V domains shown, Human-murine chimeric antibody, human IgG1/kappa constant regions) VH: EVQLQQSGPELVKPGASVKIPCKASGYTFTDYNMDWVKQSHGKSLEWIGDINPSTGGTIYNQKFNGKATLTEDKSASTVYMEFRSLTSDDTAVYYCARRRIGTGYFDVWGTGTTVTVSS VL: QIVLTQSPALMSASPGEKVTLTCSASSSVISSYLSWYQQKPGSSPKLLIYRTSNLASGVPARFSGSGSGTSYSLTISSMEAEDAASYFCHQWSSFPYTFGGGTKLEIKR
Response: 0.07

Request: Requested field: OD450. Item: S009-F7.48.1 chimeric antibody (antibody, human IgG1, kappa, V domains shown, Human-murine chimeric antibody, human IgG1/kappa constant regions) VH: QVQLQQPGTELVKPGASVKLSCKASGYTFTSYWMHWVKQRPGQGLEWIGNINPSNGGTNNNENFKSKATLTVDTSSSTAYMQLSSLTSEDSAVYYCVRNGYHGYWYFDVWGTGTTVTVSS VL: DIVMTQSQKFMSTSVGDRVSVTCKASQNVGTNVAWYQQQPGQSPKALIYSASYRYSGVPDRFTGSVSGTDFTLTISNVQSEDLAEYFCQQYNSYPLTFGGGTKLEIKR
Response: 0.07

Request: Need OD450, item S009-F7.67.12 chimeric antibody (antibody, human IgG1, kappa, V domains shown, Human-murine chimeric antibody, human IgG1/kappa constant regions) VH: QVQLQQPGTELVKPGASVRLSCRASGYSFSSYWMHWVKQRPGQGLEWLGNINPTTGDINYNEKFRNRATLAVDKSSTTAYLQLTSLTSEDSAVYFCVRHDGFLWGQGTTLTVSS VL: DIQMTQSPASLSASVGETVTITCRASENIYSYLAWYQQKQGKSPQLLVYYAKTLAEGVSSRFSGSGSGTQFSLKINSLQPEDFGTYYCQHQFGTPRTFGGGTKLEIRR
Response: 0.07
